Biological target: RORc ligand binding domain (Homo sapiens)
Sequence (P51449 269-508 limits assumed): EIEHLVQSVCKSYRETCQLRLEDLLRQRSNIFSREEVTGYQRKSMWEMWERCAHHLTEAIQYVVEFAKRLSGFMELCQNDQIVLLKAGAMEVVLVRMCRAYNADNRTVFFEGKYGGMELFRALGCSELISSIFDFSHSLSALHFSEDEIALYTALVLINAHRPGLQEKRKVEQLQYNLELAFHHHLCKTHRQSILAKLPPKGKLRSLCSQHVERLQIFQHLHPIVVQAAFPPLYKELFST
pIC50: −log10 of the molar value.
reported_metric: pIC50

Worked examples, 3 compounds total:
CC1(C)[C@H]2CC[C@]1(Oc1cnccn1)c1nnc(-c3c(F)cccc3F)cc12
7.10
CC[C@@H](O[C@@]12CC[C@@H](c3cc(-c4c(F)cccc4F)nnc31)C2(C)C)C(=O)NCc1n[nH]c(=O)[nH]1
7.02
CC1(C)[C@H]2CC[C@]1([C@H]1CCCN(c3cnccn3)C1)c1nnc(-c3c(F)cccc3F)cc12
7.62

(a) Cc1nc(N2CCO[C@H]([C@@]34CC[C@@H](c5cc(-c6c(F)cccc6F)nnc53)C4(C)C)C2)n(Cc2ccccc2)n1
(b) CN(C)C(=O)N1CCC[C@H]([C@@]23CC[C@@H](c4cc(-c5c(F)cccc5F)nnc42)C3(C)C)C1
Exercise: In terms of reported pIC50, does a or b have the smaller number? Let me know the label of the one you choose.
Solution: b

(A) CC1(C)[C@H]2CC[C@]1(OC(=O)N1CCC1)c1nnc(-c3c(F)cccc3F)cc12
(B) CC1(C)[C@H]2CC[C@]1([C@@H]1CN(C3=NC(CO)CO3)CCO1)c1nnc(-c3c(F)cccc3F)cc12 (stereo in doubt)
(C) CN1CCN(C(N)=O)C[C@H]1[C@@]12CC[C@@H](c3cc(-c4c(F)cccc4F)nnc31)C2(C)C
Exercise: rank_up(items): orders items by reported pIC50 in ascending numerical order. Reply format: the labels, ordered as requested.
Solution: A, B, C
(A: 6.45, B: 8.12, C: 8.54)

----------
Biological target: RORc ligand binding domain (Homo sapiens)
Sequence (P51449 269-508 limits assumed): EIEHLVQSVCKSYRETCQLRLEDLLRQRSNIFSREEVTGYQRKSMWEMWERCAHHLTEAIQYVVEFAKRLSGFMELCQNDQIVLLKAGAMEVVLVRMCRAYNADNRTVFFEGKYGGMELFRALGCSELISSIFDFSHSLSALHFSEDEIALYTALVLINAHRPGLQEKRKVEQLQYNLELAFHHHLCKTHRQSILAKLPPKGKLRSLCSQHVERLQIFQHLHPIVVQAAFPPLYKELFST
reported_metric: IC50 (nM)

Worked examples, 2 compounds total:
CC1(C)[C@H]2CC[C@]1(Oc1cccnc1)c1nnc(-c3c(F)cccc3F)cc12 [Compound 27]
67
CC1(C)[C@H]2CC[C@]1([C@H]1CCCN(c3cccnn3)C1)c1nnc(-c3c(F)cccc3F)cc12 [Compound 169]
40

(1) CC1(C)[C@H]2CC[C@]1([C@H]1CN(c3ccccn3)CCO1)c1nnc(-c3c(F)cccc3F)cc12 [Compound 82]
(2) CC[C@H](O[C@@]12CC[C@@H](c3cc(-c4c(F)cccc4F)nnc31)C2(C)C)c1nnc(C)o1 [Compound 21]
Exercise: In terms of reported IC50, does 1 or 2 have the smaller number? Let me know the label of the one you choose.
Solution: 1
(1: 16.7 nM, 2: 51 nM)

----------
Target: RORc ligand binding domain (Homo sapiens, UniProt P51449)
Sequence (P51449 269-508 limits assumed): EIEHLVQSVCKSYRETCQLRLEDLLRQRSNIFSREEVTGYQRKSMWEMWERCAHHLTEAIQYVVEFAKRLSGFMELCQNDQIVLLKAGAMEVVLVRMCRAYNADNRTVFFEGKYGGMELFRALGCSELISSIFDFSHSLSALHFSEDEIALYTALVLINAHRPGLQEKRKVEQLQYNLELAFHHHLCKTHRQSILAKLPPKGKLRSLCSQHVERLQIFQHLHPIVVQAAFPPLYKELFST
pIC50: −log10 of the molar value.
reported_metric: pIC50

(I) CC1(C)[C@H]2CC[C@]1(c1ccn3ccnc3n1)c1nnc(-c3c(F)cccc3F)cc12
(II) CC(=O)N1CCN(C)[C@H]([C@@]23CC[C@@H](c4cc(-c5c(F)cccc5F)nnc42)C3(C)C)C1
(III) CC[C@@H](O[C@@]12CC[C@@H](c3cc(-c4c(F)cccc4F)nnc31)C2(C)C)C(=O)NCC(C)(C)O
(IV) CNC(=O)c1cnc(O[C@@]23CC[C@@H](c4cc(-c5c(F)cccc5F)nnc42)C3(C)C)cn1
Exercise: Place the items in sequence of falling pIC50. Reply format: the labels, ordered as requested.
Solution: II, III, I, IV

----------
Target: RORc ligand binding domain (Homo sapiens)
Sequence (P51449 269-508 limits assumed): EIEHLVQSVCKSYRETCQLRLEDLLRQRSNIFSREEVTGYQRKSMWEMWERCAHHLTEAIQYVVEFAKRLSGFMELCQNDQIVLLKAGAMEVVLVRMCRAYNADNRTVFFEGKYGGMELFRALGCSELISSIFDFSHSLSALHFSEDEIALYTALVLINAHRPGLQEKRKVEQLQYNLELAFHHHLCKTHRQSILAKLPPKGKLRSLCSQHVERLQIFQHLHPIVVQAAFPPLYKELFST
reported_metric: IC50 (nM)

(A) CC(C)(C)OC(=O)N1CCN[C@H]([C@@]23CC[C@@H](c4cc(-c5c(F)cccc5F)nnc42)C3(C)C)C1 [Compound 62]
(B) CN(C)C(=O)N1CCO[C@H]([C@@]23CC[C@@H](c4cc(-c5c(F)cccc5F)nnc42)C3(C)C)C1
Exercise: Which value of IC50 is greater, the one for A or the one for B ? Let me know the label of the one you choose.
Solution: B

(a) Cc1n[nH]c(N2CCO[C@@H]([C@@]34CC[C@@H](c5cc(-c6c(F)cccc6F)nnc53)C4(C)C)C2)n1 [Compound 93]
(b) CC[C@@H](O[C@@]12CC[C@@H](c3cc(-c4c(F)cccc4F)nnc31)C2(C)C)c1nnc(CO)o1
(c) CC(=O)N1CCN(C)C[C@@H]1[C@@]12CC[C@@H](c3cc(-c4c(F)cccc4F)nnc31)C2(C)C
(d) CC1(C)[C@H]2CC[C@]1([C@H]1CNCCO1)c1nnc(-c3c(F)cccc3F)cc12
(e) CC1(C)[C@H]2CC[C@]1(Oc1ncccn1)c1nnc(-c3c(F)cccc3F)cc12
Exercise: Order the records by IC50, with each subsequent value no larger than the one before. Reply format: the labels, ordered as requested.
Solution: d, a, e, c, b
(d: 367 nM, a: 191 nM, e: 84 nM, c: 9.1 nM, b: 5.7 nM)

----------
Molecular target: RORc ligand binding domain (Homo sapiens, UniProt P51449)
Sequence (P51449 269-508 limits assumed): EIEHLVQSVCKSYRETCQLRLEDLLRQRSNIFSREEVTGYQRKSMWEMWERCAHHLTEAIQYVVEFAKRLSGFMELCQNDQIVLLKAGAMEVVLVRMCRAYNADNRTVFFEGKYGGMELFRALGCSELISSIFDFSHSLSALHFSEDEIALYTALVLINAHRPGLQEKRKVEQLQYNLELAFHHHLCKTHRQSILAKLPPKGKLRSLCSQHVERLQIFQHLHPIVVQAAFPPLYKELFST
pIC50: −log10 of the molar value.
reported_metric: pIC50

CC[C@@H](O[C@@]12CC[C@@H](c3cc(-c4c(F)cccc4F)nnc31)C2(C)C)C(=O)O
7.85
CCOC(=O)c1coc(N2CCO[C@H]([C@@]34CC[C@@H](c5cc(-c6c(F)cccc6F)nnc53)C4(C)C)C2)n1
6.37
CC1(C)[C@H]2CC[C@]1([C@H]1CCCN(C(=O)NCCS(C)(=O)=O)C1)c1nnc(-c3c(F)cccc3F)cc12
7.89
CC1(C)[C@H]2CC[C@]1([C@H]1CCCN(c3cc[nH]c(=O)c3)C1)c1nnc(-c3c(F)cccc3F)cc12
7.70

(P) CCC[C@@H](O[C@@]12CC[C@@H](c3cc(-c4c(F)cccc4F)nnc31)C2(C)C)C(N)=O
(Q) Cc1n[nH]c(N2CCC[C@H]([C@@]34CC[C@@H](c5cc(-c6c(F)cccc6F)nnc53)C4(C)C)C2)n1
(R) CC1(C)[C@H]2CC[C@]1(c1nnc(C(N)=O)o1)c1nnc(-c3c(F)cccc3F)cc12
Exercise: Order the records by pIC50, with each subsequent value no larger than the one before. Reply format: the labels, ordered as requested.
Solution: Q, P, R
(Q: 8.55, P: 7.81, R: 6.28)

----------
Target: RORc ligand binding domain (Homo sapiens, UniProt P51449)
Sequence (P51449 269-508 limits assumed): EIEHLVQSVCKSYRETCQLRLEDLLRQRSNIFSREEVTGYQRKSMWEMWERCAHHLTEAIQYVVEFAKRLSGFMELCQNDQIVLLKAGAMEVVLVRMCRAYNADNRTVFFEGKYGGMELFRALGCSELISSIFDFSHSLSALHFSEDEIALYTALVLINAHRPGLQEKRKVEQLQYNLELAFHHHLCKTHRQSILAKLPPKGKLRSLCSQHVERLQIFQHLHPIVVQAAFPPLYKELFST
pIC50: −log10 of the molar value.
reported_metric: pIC50

Worked examples, 4 molecules total:
CC1(C)[C@H]2CC[C@]1([C@H]1CN(C(=O)c3ccc(=O)[nH]n3)CCO1)c1nnc(-c3c(F)cccc3F)cc12 (stereo in doubt)
6.14
CN1CCNC[C@H]1[C@@]12CC[C@@H](c3cc(-c4c(F)cccc4F)nnc31)C2(C)C
7.89
CC1(C)[C@H]2CC[C@]1([C@H]1CN(C(=O)c3c[nH]c(=O)cn3)CCO1)c1nnc(-c3c(F)cccc3F)cc12
7.68
C[C@@H](O[C@@]12CC[C@@H](c3cc(-c4c(F)cccc4F)nnc31)C2(C)C)C(N)=O
7.84

(a) Cc1coc(N2CCO[C@@H]([C@@]34CC[C@@H](c5cc(-c6c(F)cccc6F)nnc53)C4(C)C)C2)n1
(b) CC[C@@H](O[C@@]12CC[C@@H](c3cc(-c4c(F)cccc4F)nnc31)C2(C)C)C(=O)N(C)CCOC
(c) Cc1cc(O[C@@]23CC[C@@H](c4cc(-c5c(F)cccc5F)nnc42)C3(C)C)ccn1
Exercise: Order the records by pIC50, with each subsequent value no larger than the one before. Reply format: the labels, ordered as requested.
Solution: a, b, c
(a: 7.74, b: 7.33, c: 6.07)
